- System: Influenza A/WSN
- method_summary: Virus yield reduction assay, influenza A/WSN
- Format: cell-based, influenza A strain WSN (H1N1)
- applied_conditions: Influenza A virus, WSN, NIH3T3; host cell NIH-3T3 (Rodent-mouse); read-out: EC50, Inhibition of Influenza A/WSN
pEC50: −log10 of the molar value.
property_measured: pEC50

Inquiry: Please look up its pEC50: COc1ccc(-n2c(SC(C)C(=O)Nc3ccc(C)cc3Cl)nc3ccccc32)cc1 (stereo not shown) [JMN3-003]
Reply text: < 5.00

====

- method_summary: Cytotoxicity (metabolic activity), Vero-Slam cells
- Assay type: cell-based
- applied_conditions: African green monkey, highest concentration assessed 75 µM, read-out: CC50, Toxicity, Metabolic activity
property_measured: CC50 at 24 h

Inquiry: Please look up its CC50 at 24 h: COc1ccc(-n2c(SC(C)C(=O)Nc3ccc(C)cc3Cl)nc3ccccc32)cc1 (stereo not shown)
Reply text: > 75 µM

====

- method_summary: Cytotoxicity (metabolic activity), NIH-3T3
- Assay type: cell-based, Rodent-mouse
- applied_conditions: mouse, NIH-3T3 cells, highest concentration assessed 75 µM
property_measured: CC50 at 24 h

Inquiry: Please look up its CC50 at 24 h: COc1ccc(-n2c(SC(C)C(=O)Nc3ccc(C)cc3Cl)nc3ccccc32)cc1 (stereo not shown) [JMN3-003]
Reply text: > 75 µM

====

- method_summary: Cytotoxicity (metabolic activity), MDCK
- Format: cell-based, Canine-dog
- applied_conditions: dog, MDCK cells, highest concentration assessed 75 µM
property_measured: CC50 at 24 h

Inquiry: Please look up its CC50 at 24 h: COc1ccc(-n2c(SC(C)C(=O)Nc3ccc(C)cc3Cl)nc3ccccc32)cc1 (stereo not shown)
Reply text: > 75 µM

====

- Tested on: MeV (Alaska)
- method_summary: microbe, parasite or virus in culture
- Format: cell-based, measles virus isolate MVi/Alaska.USA/16.00
- applied_conditions: Measles morbillivirus; Vero-Slam, comparison curve of figure 2; read-out: EC50, MeV-Alaska grown on Vero-Slam cells
property_measured: pEC50
pEC50 is a log-scale quantity: -log10 of the concentration expressed in molar.

Inquiry: Which pEC50 is reported with MeV (Alaska) for this entry: COc1ccc(-n2c(SC(C)C(=O)Nc3ccc(C)cc3Cl)nc3ccccc32)cc1 (stereo not shown) ?
Reply text: 7.40

====

- method_summary: Cytotoxicity (metabolic activity), HeLa
- Format: cell-based
- applied_conditions: human, HeLa cells, highest concentration assessed 75 µM
property_measured: CC50 at 24 h

Inquiry: Please look up its CC50 at 24 h: COc1ccc(-n2c(SC(C)C(=O)Nc3ccc(C)cc3Cl)nc3ccccc32)cc1 (stereo not shown)
Reply text: > 75 µM

====

- Tested on: para- and orthomyxovirus family members
- method_summary: organism not typed
- Type: cell-based
- applied_conditions: range depending on the target virus; read-out: active concentrations (anti-myxovirus activity)
property_measured: EC50

Inquiry: Please look up its EC50: COc1ccc(-n2c(SC(C)C(=O)Nc3ccc(C)cc3Cl)nc3ccccc32)cc1 (stereo not shown)
Reply text: 0.01 to 0.08 µM

====

- method_summary: Cytotoxicity (metabolic activity), CHO
- Format: cell-based, Rodent-Chinese hamster
- applied_conditions: Chinese hamster, CHO cells, highest concentration assessed 75 µM
property_measured: CC50 at 24 h

Inquiry: Please look up its CC50 at 24 h: COc1ccc(-n2c(SC(C)C(=O)Nc3ccc(C)cc3Cl)nc3ccccc32)cc1 (stereo not shown) [JMN3-003]
Reply text: > 75 µM
